Tested on: IFNγ-Induced NO Production
Assay: Nitric Oxide Suppression Assay (Suppression of IFNγ-Induced NO Production)
Assay type: cell-based
Details: RAW264.7; RAW 264.7 mouse macrophage cells; 2 hour pre-treatment with compound (3 μM to 0.3 nM, 10 point curve); 20 ng/mL interferon gamma, ~18 hour; Griess detection; n=2-3 in duplicates
pIC50: −log10 of the molar value.
Decision: pIC50 >= 8 yields class 1, all other cases yield class 0.

Reported pIC50 reaches at least 8 for Cc1nc(-c2cncn2C)c2c(n1)[C@@]1(c3ccccc3)C=C(C#N)C(=O)[C@@H](C)[C@@H]1CC2 ?
class 1

Moving on to the next molecule: Cc1nc(O)c2c(n1)[C@@]1(c3ccccc3)C=C(C#N)C(=O)[C@@H](C)[C@@H]1CC2
class 0

Moving on to the next molecule: C[C@@H]1C(=O)C(C#N)=C[C@]2(c3ccccc3)c3n[nH]c(-c4cnn(-c5cccnc5)c4)c3CC[C@@H]12
class 0

Moving on to the next molecule: C[C@@H]1C(=O)C(C#N)=C[C@]2(c3ccccc3)c3nc(-c4ccc(C(N)=O)cc4)ncc3CC[C@@H]12
class 1

Moving on to the next molecule: C[C@@H]1C(=O)C(C#N)=C[C@]2(c3ccccc3)c3c(c(-c4cccnc4)nn3C)CC[C@@H]12
class 1

----------
System: IFNγ-Induced NO Production
Test: Nitric Oxide Suppression Assay (Suppression of IFNγ-Induced NO Production)
Format: cell-based
Conditions: RAW264.7; RAW 264.7 mouse macrophage cells; 2 hour pre-treatment with compound (3 μM to 0.3 nM, 10 point curve); 20 ng/mL interferon gamma, ~18 hour; Griess detection; n=2-3 in duplicates
Value Type: pIC50
Just the number, please; pIC50 means minus log10 of the concentration in mol/L.

- Compound: "C[C@@H]1C(=O)C(C#N)=C[C@]2(c3cccc(F)c3)c3n[nH]c(-c4cccc(CCCO)c4)c3CCC12 (stereo partly shown) [Example 78]"
  Test System: "IFNγ-Induced NO Production"
  pIC50: 7.66
- Compound: "Cc1nc(-c2ccncc2)c2c(n1)[C@@]1(c3ccccc3)C=C(C#N)C(=O)[C@@H](C)[C@@H]1CC2 [Example 27]"
  Test System: "IFNγ-Induced NO Production"
  pIC50: 8.23
- Compound: "C[C@@H]1C(=O)C(C#N)=C[C@]2(c3ccc(C(=O)N4CCCC4)cc3)c3ncncc3CC[C@@H]12 [Example 73]"
  Test System: "IFNγ-Induced NO Production"
  pIC50: 6.82
- Compound: "COc1ccc([C@]23C=C(C#N)C(=O)[C@@H](C)[C@@H]2CCc2c[nH]nc23)cc1 [Example 58]"
  Test System: "IFNγ-Induced NO Production"
  pIC50: 7.48
- Compound: "C[C@@H]1C(=O)C(C#N)=C[C@]2(c3ccccc3)c3nc(-c4cc(Br)ccc4O)ncc3CC[C@@H]12 [Example 111]"
  Test System: "IFNγ-Induced NO Production"
  pIC50: 7.91
- Compound: "Cc1nc(-c2ccc(-c3cncnc3)cc2)c2c(n1)[C@@]1(c3ccccc3)C=C(C#N)C(=O)[C@@H](C)[C@@H]1CC2 [Example 129]"
  Test System: "IFNγ-Induced NO Production"
  pIC50: 7.89
- Compound: "C[C@@H]1C(=O)C(C#N)=C[C@]2(c3ccccc3)c3n[nH]c(-c4ccc(NS(C)(=O)=O)cc4)c3CC[C@@H]12 [Example 112]"
  Test System: "IFNγ-Induced NO Production"
  pIC50: 7.18
- Compound: "COc1ccc([C@]23C=C(C#N)C(=O)[C@@H](C)[C@@H]2CCc2c(-c4ccc(-c5[nH]ncc5Br)cc4)nc(C)nc23)cc1 [Example 79]"
  Test System: "IFNγ-Induced NO Production"
  pIC50: 7.34

I have this compound here, C[C@@H]1C(=O)C(C#N)=C[C@]2(Cc3ccccc3)c3nn(C)cc3CC[C@@H]12 (racemic) [Example 162] , and I need its recorded pIC50.
6.64
